List of Radioactivity distribution Femur values.
PROTOCOL_SUMMARY: In vivo kinetics experiment (radioactivity distribution)
Set-up: species or system Wistar male rat
EXPERIMENTAL_CONTEXT: rat, caudal vein, 10 min after administration

COMPOUND: Fc1cc2nc(-c3cncc(Cn4ccnc4)c3)n(CC[18F])c2cc1Br [[^18F] 200]
Radioactivity distribution Femur (% ID/g): 0.38

COMPOUND: [123I]c1ccc2nc(-c3cncc(Cn4ccnn4)c3)n(C3CC3)c2c1 [[^123I] 603]
Radioactivity distribution Femur (% ID/g): 0.85

COMPOUND: Fc1cc2nc(-c3cncc(Cn4ccnc4)c3)n(CC[18F])c2cc1Cl [[^18F] 100]
Radioactivity distribution Femur (% ID/g): 0.63

COMPOUND: Fc1cc2nc(-c3cncc(Cn4ccnc4)c3)n(CCC[18F])c2cc1Cl [[^18F] 500]
Radioactivity distribution Femur (% ID/g): 0.25

###

PROTOCOL_SUMMARY: In vivo kinetics experiment (radioactivity distribution)
Parameters: species or system Wistar male rat
EXPERIMENTAL_CONTEXT: 60 min after administration; rat i.v.; mean ± SD
// classify: if (Adrenal gland/blood ratio of radioactivity accumulation < 200) Yes else No

COMPOUND: COC(=O)c1cncn1[C@H](C)c1ccc(I)cc1 [[^123I] IMTO, (R)-[^123I]iodometomidate, reference compound]
DISCRETE_LABEL: Yes
--
COMPOUND: CC(C)n1c(-c2cncc(Cn3ccnc3)c2)nc2ccc([123I])cc21 [[^123I] 606]
DISCRETE_LABEL: Yes
--
COMPOUND: FCCn1c(-c2cncc(Cn3cncc3[123I])c2)nc2cc(F)c(Cl)cc21 [[^123I] 610]
DISCRETE_LABEL: Yes
--
COMPOUND: Cn1c(-c2cncc(Cn3ccnc3)c2)nc2ccc([123I])cc21 [[^123I] 607]
DISCRETE_LABEL: No
--
COMPOUND: FCCn1c(-c2cncc(Cn3ccnc3)c2)nc2ccc([123I])cc21 [[^123I] 604]
DISCRETE_LABEL: No
--
COMPOUND: CCn1c(-c2cncc(Cn3ccnc3)c2)nc2ccc([123I])cc21 [[^123I] 608]
DISCRETE_LABEL: No
--
COMPOUND: Fc1cc2nc(-c3cncc(Cn4ccnc4)c3)n(Cc3ccc([123I])cc3)c2cc1Cl [[^123I] 605]
DISCRETE_LABEL: Yes
--
COMPOUND: COc1cc([123I])cc2c1nc(-c1cncc(Cn3ccnc3)c1)n2C1CC1 [[^123I] 609]
DISCRETE_LABEL: Yes

###

List of Radioactivity distribution Small intestine values.
PROTOCOL_SUMMARY: In vivo kinetics experiment (radioactivity distribution)
Design: species or system Wistar male rat
EXPERIMENTAL_CONTEXT: 60 min after administration; rat i.v.; mean ± SD
REPORTED_ENDPOINT: Radioactivity distribution Small intestine (% ID/g)

MOLECULE: Cn1c(-c2cncc(Cn3ccnc3)c2)nc2ccc([123I])cc21 [[^123I] 607]
TEST_VALUE: 5.48
//
MOLECULE: CC(C)n1c(-c2cncc(Cn3ccnc3)c2)nc2ccc([123I])cc21 [[^123I] 606]
TEST_VALUE: 3.77
//
MOLECULE: FCCn1c(-c2cncc(Cn3cncc3[123I])c2)nc2cc(F)c(Cl)cc21 [[^123I] 610]
TEST_VALUE: 1.18
//
MOLECULE: Fc1cc2nc(-c3cncc(Cn4ccnc4)c3)n(Cc3ccc([123I])cc3)c2cc1Cl [[^123I] 605]
TEST_VALUE: 6.65
//
MOLECULE: CCn1c(-c2cncc(Cn3ccnc3)c2)nc2ccc([123I])cc21 [[^123I] 608]
TEST_VALUE: 4.35

Data origin, for the record: patent US10358434B2
